Numbers sourced from patent US11471446B2.

- System: RPS19-deficient murine erythroid progenitor cells
- EXPERIMENTAL_PROTOCOL: Phenotypic assay for rescued cell proliferation of murine RPS19-deficient erythroid progenitor cells
- Assay type: cell-based, mouse
- MEASUREMENT_PARAMETERS: Mus musculus, Erythroid progenitor cell; maximal proliferation rescue; read-out: ECMAX (% rescue)
Where a name gives a salt, the structure may show the parent alone.
For each entry below, report its Emax value.
Express it in %; write the number only.

Any idea what its Emax is? The compound is CN(C)c1ccnc2sc(C(N)=O)c(N)c12 [DBA-1] 25

Consider the compound shown here: CCc1nc2sc(C(N)=O)c(N)c2c2c1CCCC2 [DBA-3] What is its recorded Emax? 38

# query: Emax of entry N#Cc1ccc2ncnc(NCCc3ccccc3)c2c1 [DBA-8, reference compound] 80

# lookup: Emax of CN1CCN(C(=O)c2ccc3cc(CCNc4ncnc5ccc(C#N)cc45)ccc3c2)CC1 [DBA-9] 60

Which Emax value is on record for Cn1cc(-c2ccc(-c3cncc(Cl)c3N3CCC4(CCNC4=O)CC3)cc2)cn1 [DBA-11, reference compound] ? 50

Find the recorded Emax belonging to Cc1c(Br)c(Br)c2c3c1nc(N1CCNCC1)n3CCC2 [DBA-10, hydrochloride, reference compound] and report it. 60

Name the recorded Emax for COCc1cc(C)nc2sc(C(N)=O)c(N)c12 [DBA-4] . 28

Entry NC(=O)c1sc2nccc(N3CCCN(c4ccccc4)CC3)c2c1N [DBA-6] : reported Emax = ? 30

Any idea what its Emax is? The compound is COc1ccc(-c2cc(C3CC3)nc3sc(C(N)=O)c(N)c23)cc1 [DBA-2] 45

Fill in the blank: the reported Emax of CN(C)C(=O)Cc1ccc(N2CCCN(c3ccnc4sc(C(N)=O)c(N)c34)CC2)cc1 [DBA-7] is ____. 82

# Emax lookup, item Cc1c(C(N)=O)sc2nc(C(F)(F)F)cc(N)c12 [DBA-5] 21
